The measured values listed here are drawn from ChEMBL document CHEMBL4118082.

Test system: Mycobacterium tuberculosis
Test: Growth inhibition of Mycobacterium tuberculosis H37Ra Lehmann and Neumann ATCC 25177 harboring pSMT1 luciferase reporter at 0.1 uM after 6 days by luminescence based serial dilution method relative to control
Type: functional
Conditions: H37Ra Lehmann and Neumann ATCC 25177, 144 h, read-out: GI
Measured Quantity: inhibition of growth at 0.1 µM
Answer format: value, then unit.

# example entries with known answers
- Smiles Text: "O=c1c(-c2ccccc2)c(O)c2ccccc2n1-c1ccccc1"
  System: "Mycobacterium tuberculosis"
  inhibition of growth at 0.1 µM: "30.1%"
- Smiles Text: "CCCCc1c(O)c2c(Cl)ccc(C)c2[nH]c1=O"
  System: "Mycobacterium tuberculosis"
  inhibition of growth at 0.1 µM: "30%"

// sample Cn1c(=O)c(-c2ccccc2)c(O)c2ccccc21 , its inhibition of growth at 0.1 µM was 29.8%
